system: 134 cancer cell lines; assay: Cell viability assay (ATPlite, 72 hours), IC50 on cancer cell line panel; conditions: Homo sapiens, 786-0, read-out: IC50 in cell proliferation assay
For each entry below, report its IC50 value.

Look up IC50 for this compound: C=CC(=O)N1CCC([C@@H]2CCNc3c(C(N)=O)c(-c4ccc(Oc5ccccc5)cc4)nn32)CC1 [zanubrutinib]
2190 nM

Endpoint output: IC50 of CCc1cc2c(cc1N1CCC(N3CCOCC3)CC1)C(C)(C)c1[nH]c3cc(C#N)ccc3c1C2=O [alectinib] . Value?
> 10000 nM

Can you share its IC50? I mean this compound: CNC(=O)c1ccc(-c2cnc3ncc(Cc4ccc5ncccc5c4)n3n2)cc1F [capmatinib]
> 31600 nM

Query: IC50; subject: C[C@H]1Oc2cc(cnc2N)-c2c(nn(C)c2C#N)CN(C)C(=O)c2ccc(F)cc21 [lorlatinib]
> 31600 nM

For the compound shown here, CCN1C(=O)N(c2c(F)c(OC)cc(OC)c2F)Cc2cnc3[nH]c(CN4CCOCC4)cc3c21 [pemigatinib] , give the reported IC50.
2710 nM

Which value of IC50 has been reported for Cn1cc(-c2cc3c(N4CCN(c5ncc([C@@](C)(N)c6ccc(F)cc6)cn5)CC4)ncnn3c2)cn1 [avapritinib] in the records?
11800 nM

Entry COc1cc(N2CCC(N3CCN(C)CC3)CC2)ccc1Nc1ncc(Cl)c(Nc2ccccc2P(C)(C)=O)n1 [brigatinib] has what IC50?
2070 nM
